Test: Pharmacokinetic studies of certain compounds in female Balb/c mice (Example 5)
Type: in vivo
Settings: mouse, plasma, I-27 PO 30 mg/kg
assay-metric: AUC(0-inf)
// return the numeric value with its unit appended

Input line: Param item = CC(C)Cc1sc(Nc2ncc(-c3cccs3)cc2C(=O)O)nc1C1(C)CCCCC1 [Compound I-27] ; retrieve measured AUC(0-inf).
Output line: 17.9 µg·h/mL

----------
Assay: Pharmacokinetic study of I-11 in female BALB/c mice (Example 4)
Format: in vivo, Balb/c mouse
Conditions: female, BALB/c, mouse, plasma, po, 50 mg/kg, PO 50 mg/kg, 0.083 hr, read-out: Plasma concentration Mean
Description: Pharmacokinetic Study in Female BALB/c Mice: Balb/c mouse, 17-19 g, 8-10 weeks, female, N=27, purchased from JH Laboratory Animal Co. LTD Fasted overnight and fed at 4 hr post dosing. Animals dosed with sampling at 0.083, 0.25, 0.5, 1, 2, 4, 8, 24 hr post dose. 8 time points. Semi-serial bleeding for plasma only. The animals were restrained manually at the designated time points. Approx. […] Plasma samples were analyzed for I-11 using LC-MS using a calibration curve of known concentrations. […]
assay-metric: concentration at 0.083 hr
// return the numeric value with its unit appended

Input line: Param item = "CC(C)Cc1sc(Nc2ncc(-c3cccs3)cc2C(=O)O)nc1C(C)(C)C" ; retrieve measured concentration at 0.083 hr.
Output line: 257 ng/mL
